Entry source: ChEMBL document CHEMBL1123670

# TGT: Phosphodiesterase 3 (Homo sapiens, UniProt Q14432+Q13370)
# EXPERIMENTAL_PROTOCOL: In vitro inhibition of cyclic AMP phosphodiesterase from human platelets
PROPERTY_NAME: IC50 (nM)

Here's what some known entries look like.
Query: IC50; subject: `CN(C(=O)CCCCOc1ccc2c(c1)CN1CC(=O)NC1=N2)C1CCCCC1`
Response: 4.6

Query: Now the same for CC(O)[C@H]1C(=O)NC2=Nc3ccc(OCCCC(=O)N(C)C4CCCCC4)cc3CN21 (stereo not given in full)
Response: 1000

Query: Now the same for `CN(C(=O)CCCOc1ccc2c(c1)CN1CC(=O)NC1=N2)C1CCCC1`
Response: 48

Query: Now the same for `O=C1CN2Cc3cc(OCCCC(=O)N(C(CO)CO)C4CCCCC4)ccc3N=C2N1`
Response: 12

Query: Now the same for `COC1=NC2=Nc3ccc(OCCCC(=O)N(C)C4CCCCC4)cc3CN2C1`
Response: 9600

(A) CN(C(=O)NCCOc1ccc2c(c1)CN1CC(=O)NC1=N2)C1CCCCC1
(B) O=C1CN2Cc3cc(OCCCC(=O)N4CCCc5ccccc54)ccc3N=C2N1
(C) CN(C(=O)CCCOc1ccc2c(c1)CN1NC(=O)NC1=N2)C1CCCCC1
(D) O=C(O)CN(C(=O)CCCOc1ccc2c(c1)CN1CC(=O)NC1=N2)C1CCCCC1
(E) CC(C)N(C(=O)CCCOc1ccc2c(c1)CN1CC(=O)NC1=N2)C1CCCCC1
Query: Hey, can you sort those compounds up there by IC50, smallest first? Note for the reader: the ranking is given by listing the labels in the order requested.
Response: E, D, B, A, C

###

# TGT: Phosphodiesterase 3 (Homo sapiens, UniProt Q14432+Q13370)
# EXPERIMENTAL_PROTOCOL: In vitro inhibition of cyclic AMP phosphodiesterase from human platelets
PROPERTY_NAME: IC50 (nM)

Here's what some known entries look like.
Query: IC50; subject: `CCN(C(=O)CCCOc1ccc2c(c1)CN1CC(=O)NC1=N2)C1CCCCC1`
Response: 1.5

Query: Now the same for `CN(C(=O)CCCOc1ccc2c(c1)CN1C(=N2)NC(=O)[C@@H]1CO)C1CCCCC1`
Response: 27.5

Query: Now the same for `COCCN(C(=O)CCCOc1ccc2c(c1)CN1CC(=O)NC1=N2)C1CCCCC1`
Response: 1.3

Query: Now the same for `NC(=O)CN(C(=O)CCCOc1ccc2c(c1)CN1CC(=O)NC1=N2)C1CCCCC1`
Response: 11

Query: Now the same for `C[C@@H]1C(=O)NC2=Nc3ccc(OCCCC(=O)N(C)C4CCCCC4)cc3CN21`
Response: 5.4

Query: Now the same for `O=C1CN2Cc3cc(OCCCC(=O)N(CCCO)C4CCCCC4)ccc3N=C2N1`
Response: 6

Query: Now the same for `COc1ccc(C(=O)N2CCN(c3ccc4c(c3)CCC(=O)N4)CC2)cc1OC`
Response: 6200

Query: Now the same for `CC[C@@H]1C(=O)NC2=Nc3ccc(OCCCC(=O)N(C)C4CCCCC4)cc3CN21`
Response: 370

Query: Now the same for `CN(C(=O)CCCOc1ccc2c(c1)CN1C(=N2)NC(=O)[C@H]1c1ccccc1)C1CCCCC1`
Response: 3300

Query: Now the same for `CN(C(=O)CCCOc1ccc2c(c1)CN1C(=N2)NC(=O)C12CC2)C1CCCCC1`
Response: 760

(P) O=C1CN2Cc3cc(OCCCC(=O)N(CCCCCCO)C4CCCCC4)ccc3N=C2N1
(Q) O=C1CN2Cc3cc(OCCCC(=O)N(C4CCCCC4)C4CCCCC4)ccc3N=C2N1
(R) CN(C(=O)CCCOc1ccc2c(c1)CN1CC(=O)NC1=N2)C1CCCCCC1
Query: Hey, can you sort those molecules up there by IC50, smallest first? Note for the reader: the ranking is given by listing the labels in the order requested.
Response: R, Q, P

(a) CN(C(=O)CCCS(=O)(=O)c1ccc2c(c1)CN1CC(=O)NC1=N2)C1CCCCC1
(b) CN(C(=O)CCCOc1ccc2c(c1)CN1CC(=O)NC1=N2)C1CCCCCCC1
(c) CN(C(=O)CCCCCCOc1ccc2c(c1)CN1CC(=O)NC1=N2)C1CCCCC1
Query: Hey, can you sort those molecules up there by IC50, smallest first? Note for the reader: the ranking is given by listing the labels in the order requested.
Response: b, c, a
(b: 2.2 nM, c: 16 nM, a: 3100 nM)

(1) CN(C(=O)CCCOc1ccc2c(c1)CN1CCC(=O)NC1=N2)C1CCCCC1
(2) CN(C)C(=O)CCCOc1ccc2c(c1)CN1CC(=O)NC1=N2
(3) CN(C(=O)CCCOc1ccc2c(c1)CN1CC(=O)NC1=N2)c1ccccc1
(4) O=C1CN2Cc3cc(OCCCC(=O)N(CCO)C4CCCCC4)ccc3N=C2N1
Query: Returns the items ordered by IC50, from maximum to minimum. Note for the reader: the ranking is given by listing the labels in the order requested.
Response: 2, 1, 3, 4
(2: 1200 nM, 1: 130 nM, 3: 26 nM, 4: 12.5 nM)
